Value source: a melting point compilation (Tetko et al.; mined from patent text by program, amines drawn as free bases though some values may be those of a salt)

Consider the following compounds; for each one, report its melting point.

The reported value for `Oc1ccc(C(c2ccc(O)cc2)c2cccc3ccccc23)cc1` in terms of melting point is 109 to 111 °C

melting point reported for this compound `O=C(Oc1cc([N+](=O)[O-])ccc1[N+](=O)[O-])c1cc2ccccc2oc1=O` : 223 to 225 °C

The reported melting point of the compound `CC1=C(c2ccccc2)CCC(=O)N1` was 310 to 330 °C

Consider CC(CCC(=O)OC1CCCCC1)C1CC=C2C3=C(CCC21C)C1(C)CCC(O)C(C)(C)C1CC3 (stereo not given) . Its measured melting point is 130 to 132 °C

// field: melting point; key: `N#Cc1ccc2c(c1)S(=O)(=O)c1ccc(N)cc1C=C2` ; value = 321 to 324 °C
